Just for reference, patent US11046716B2 is where these values come from.

Target: KPC-2 (Klebsiella pneumoniae)
Construct: made in house; host or cells: E. coli BL21(DE3)
Sequence (Q9F663 25-293, looked up): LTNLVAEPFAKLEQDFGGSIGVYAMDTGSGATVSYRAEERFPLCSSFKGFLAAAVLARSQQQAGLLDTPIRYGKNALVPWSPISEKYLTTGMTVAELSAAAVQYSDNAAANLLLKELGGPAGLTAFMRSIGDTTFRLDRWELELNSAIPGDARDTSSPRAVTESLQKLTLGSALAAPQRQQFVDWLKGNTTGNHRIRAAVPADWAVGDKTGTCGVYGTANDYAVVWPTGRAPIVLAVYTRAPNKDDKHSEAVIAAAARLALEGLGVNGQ
Experiment: β-lactamase enzyme inhibition assay, KPC-2 (imipenem substrate)
Type: biochemical
pIC50: −log10 of the molar value.
# pIC50 listing for each entry below
READOUT_NAME: pIC50

> print(dat)
                                   molecule                   study.system  value.measured
1  NCCn1cc(Cn2nnnc2CC(=O)N[C@H]2Cc3cccc(C(=O)O)c3OB2O)nn1 [Example 123]  KPC-2 (Klebsiella pneumoniae)    6.00 to 7.00
2  NCCc1cnnn1CC(=O)N[C@H]1Cc2cccc(C(=O)O)c2OB1O [Example 121]  KPC-2 (Klebsiella pneumoniae)          > 7.00
3  C[Si](C)(C)c1cn(CC(=O)N[C@H]2Cc3cccc(C(=O)O)c3OB2O)nn1 [Example 9]  KPC-2 (Klebsiella pneumoniae)          > 7.00

====

Biological target: VIM-2 (Escherichia coli, UniProt Q5U7L7)
Construct: made in house; host or cells: E. coli BL21(DE3)
Assay: β-lactamase enzyme inhibition assay, VIM-2 (nitrocefin substrate)
Format: biochemical
Conditions: Class B; nitrocefin substrate, 486 nm; read-out: VIM-2
READOUT_NAME: IC50

> print(dat)
                                    compound    value.measured
 1  O=C(Cc1nnn[nH]1)N[C@H]1Cc2cccc(C(=O)O)c2OB1O [Example 40]  1000 to 10000 nM
 2  N[C@@H]1CCN(C(=O)c2cn(CC(=O)N[C@H]3Cc4cccc(C(=O)O)c4OB3O)nn2)C1 [Example 85]    100 to 1000 nM
 3  CNCCNC(=O)c1cn(CC(=O)N[C@H]2Cc3cccc(C(=O)O)c3OB2O)nn1 [Example 87]          < 100 nM
 4  N=C(N)N1CC(c2cn(CC(=O)N[C@H]3Cc4cccc(C(=O)O)c4OB3O)nn2)C1 [Example 91]    100 to 1000 nM
 5  CNCc1nnn(CC(=O)N[C@H]2Cc3cccc(C(=O)O)c3OB2O)c1CO [Example 14]    100 to 1000 nM
 6  NCCc1cn(CC(=O)N[C@H]2Cc3cccc(C(=O)O)c3OB2O)nn1 [Example 6]  1000 to 10000 nM
 7  NCc1cnn(CC(=O)N[C@H]2Cc3cccc(C(=O)O)c3OB2O)c1 [Example 68]    100 to 1000 nM
 8  NCCCn1nnc(CC(=O)N[C@H]2Cc3cccc(C(=O)O)c3OB2O)n1 [Example 51]          < 100 nM
 9  CNCc1c(CO)nnn1CC(=O)N[C@H]1Cc2cccc(C(=O)O)c2OB1O [Example 15]          < 100 nM
10  Cc1c(CN)nnn1CC(=O)N[C@H]1Cc2cccc(C(=O)O)c2OB1O [Example 106]          < 100 nM
11  NCc1ccc(-c2cn(CC(=O)N[C@H]3Cc4cccc(C(=O)O)c4OB3O)nn2)cn1 [Example 75]    100 to 1000 nM
12  NCCn1cnnc1CC(=O)N[C@H]1Cc2cccc(C(=O)O)c2OB1O [Example 117]    100 to 1000 nM
13  O=C(Cn1cc(CO)nn1)N[C@H]1Cc2cccc(C(=O)O)c2OB1O [Example 1]  1000 to 10000 nM
14  NCc1nnc(CC(=O)N[C@H]2Cc3cccc(C(=O)O)c3OB2O)[nH]1 [Example 23]    100 to 1000 nM
15  O=C(Cn1cnnn1)N[C@H]1Cc2cccc(C(=O)O)c2OB1O [Example 97]    100 to 1000 nM
16  O=C(Cn1cc(-c2cccs2)nn1)N[C@H]1Cc2cccc(C(=O)O)c2OB1O [Example 28]    100 to 1000 nM
17  N=CNCc1cn(CC(=O)N[C@H]2Cc3cccc(C(=O)O)c3OB2O)nn1 [Example 22]    100 to 1000 nM
